Data origin: ChEMBL document CHEMBL6083240

- assay_system: Sodium-dependent serotonin transporter (Rattus norvegicus, UniProt P31652)
- Sequence (P31652 whole entry): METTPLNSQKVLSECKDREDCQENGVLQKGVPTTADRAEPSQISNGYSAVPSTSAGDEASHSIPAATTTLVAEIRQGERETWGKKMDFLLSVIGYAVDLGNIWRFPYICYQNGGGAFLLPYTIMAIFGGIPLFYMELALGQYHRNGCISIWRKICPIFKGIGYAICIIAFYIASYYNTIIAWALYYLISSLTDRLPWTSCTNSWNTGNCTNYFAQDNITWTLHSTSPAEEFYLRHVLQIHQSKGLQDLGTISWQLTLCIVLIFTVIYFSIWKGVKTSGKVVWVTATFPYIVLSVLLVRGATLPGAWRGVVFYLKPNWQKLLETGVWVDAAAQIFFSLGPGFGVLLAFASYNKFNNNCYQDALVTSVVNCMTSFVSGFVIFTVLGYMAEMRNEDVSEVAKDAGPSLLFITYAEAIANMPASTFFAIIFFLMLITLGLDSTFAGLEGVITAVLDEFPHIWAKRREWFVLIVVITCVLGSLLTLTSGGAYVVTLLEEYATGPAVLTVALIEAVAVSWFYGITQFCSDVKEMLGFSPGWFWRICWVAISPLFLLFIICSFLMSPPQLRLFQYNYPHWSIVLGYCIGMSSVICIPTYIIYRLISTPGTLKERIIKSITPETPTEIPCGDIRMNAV
# key: entry, value: Ki
Return type: number; implicit unit nM.

# molecule, attribute_measured, uom, quantitative_result
rows = [
    ("CN(C)CCC(Oc1cccc2c1OCO2)c1ccccc1 (stereo unspecified)", "Ki", "nM", 98.4),
    ("CN(C)CCC(Oc1cccc2c1OCO2)c1ccccc1F (stereo unspecified)", "Ki", "nM", 28),
    ("CN(C)CC[C@@H](Oc1cccc2c1OCO2)c1ccc(F)cc1.O=C(O)C(=O)O", "Ki", "nM", 5.8),
    ("CN(C)CCC(Oc1cccc2c1OCO2)c1ccc(F)c(F)c1 (stereo unspecified)", "Ki", "nM", 237),
]

Give Ki (Sodium-dependent serotonin transporter (Rattus norvegicus, UniProt P31652)) of the following molecule: NCCC(Oc1cccc2c1OCO2)c1ccccc1 (stereo unspecified)
217

Give Ki (Sodium-dependent serotonin transporter (Rattus norvegicus, UniProt P31652)) of the following molecule: CNCCC(Oc1cccc2c1OCO2)c1ccc(Cl)cc1 (stereo unspecified)
77.3

* * *

- assay_system: Sigma intracellular receptor 2 (Homo sapiens)
- Sequence (Q5BJF2 whole entry): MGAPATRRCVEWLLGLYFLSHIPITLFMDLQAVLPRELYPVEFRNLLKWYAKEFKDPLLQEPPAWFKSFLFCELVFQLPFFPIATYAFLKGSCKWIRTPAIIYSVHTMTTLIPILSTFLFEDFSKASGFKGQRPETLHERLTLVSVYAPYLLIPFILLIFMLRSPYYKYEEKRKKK
- run_description: Binding affinity to sigma 2 receptor (unknown origin)
pKi: −log10 of the molar value.
attribute_measured: pKi

Give pKi (Sigma intracellular receptor 2 (Homo sapiens)) of the following compound: CN(C)CC[C@@H](Oc1cccc2c1OCO2)c1ccc(F)cc1.O=C(O)C(=O)O
< 6.00

* * *

What follows is a record of Ki for Sodium-dependent serotonin transporter (Rattus norvegicus, UniProt P31652).

# compound, result
measured = [
    ("CN(C)CC[C@H](Oc1cccc2c1OCO2)c1ccc(F)cc1", "3.3 nM"),
    ("CNCCC(Oc1cccc2c1OCO2)c1ccc(Cl)c(Cl)c1 (configuration not stated)", "43.6 nM"),
    ("CNCCC(Oc1cccc2c1OCO2)c1ccc(C(F)(F)F)cc1 (configuration not stated)", "74.1 nM"),
]

Data request, read-out Ki, for CN(C)CCC(Oc1cccc2c1OCO2)c1cccc(Cl)c1 (configuration not stated)
103 nM

* * *

- assay_system: Sigma non-opioid intracellular receptor 1 (Homo sapiens, UniProt Q99720)
- Sequence (Q99720 whole entry): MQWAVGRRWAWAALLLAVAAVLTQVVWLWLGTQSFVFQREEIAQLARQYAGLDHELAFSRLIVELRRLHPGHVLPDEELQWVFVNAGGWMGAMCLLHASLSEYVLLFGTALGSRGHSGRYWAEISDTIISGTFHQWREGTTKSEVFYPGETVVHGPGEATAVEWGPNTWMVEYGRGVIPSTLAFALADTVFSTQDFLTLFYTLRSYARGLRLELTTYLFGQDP
- run_description: Binding affinity to sigma 1 receptor (unknown origin)
attribute_measured: Ki

Data request, read-out Ki, for CN(C)CC[C@@H](Oc1cccc2c1OCO2)c1ccc(F)cc1.O=C(O)C(=O)O
> 1 µM

* * *

- assay_system: Transporter (Rattus norvegicus, UniProt Q63380)
- Sequence (Q63380 whole entry): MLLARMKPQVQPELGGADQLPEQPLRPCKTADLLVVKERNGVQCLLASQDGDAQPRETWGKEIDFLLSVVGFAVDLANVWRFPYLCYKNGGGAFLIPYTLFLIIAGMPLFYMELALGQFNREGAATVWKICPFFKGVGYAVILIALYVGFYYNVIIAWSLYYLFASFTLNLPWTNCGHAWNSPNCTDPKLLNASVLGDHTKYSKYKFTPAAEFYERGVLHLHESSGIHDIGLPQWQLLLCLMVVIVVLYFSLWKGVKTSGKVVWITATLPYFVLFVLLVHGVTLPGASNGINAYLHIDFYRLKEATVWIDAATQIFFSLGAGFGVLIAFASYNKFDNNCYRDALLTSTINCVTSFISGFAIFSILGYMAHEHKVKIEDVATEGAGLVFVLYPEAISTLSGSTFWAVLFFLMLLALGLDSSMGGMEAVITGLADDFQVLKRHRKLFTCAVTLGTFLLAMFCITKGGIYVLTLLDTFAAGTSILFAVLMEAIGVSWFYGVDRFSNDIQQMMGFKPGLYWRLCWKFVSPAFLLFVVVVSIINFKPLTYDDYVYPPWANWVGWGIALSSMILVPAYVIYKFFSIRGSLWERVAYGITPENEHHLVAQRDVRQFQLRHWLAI
- run_description: Displacement of [3H]-nisoxetine from NET in rat hippocampal membrane incubated for 8 hrs by liquid scintillation counting method
- Type: cell membranes, Hippocampus
pKi: −log10 of the molar value.
Please enter Y where pKi is greater than or equal to 8, and N where it is lower.

# compound, assay_system, classification
data = [
    ("CNCCC(Oc1cccc2c1OCO2)c1ccc(C(F)(F)F)cc1 (centres undefined)", "Transporter (Rattus norvegicus, UniProt Q63380)", "N"),
]

Tell me whether pKi is at least 8 here: CN(C)CCC(Oc1cccc2c1OCO2)c1ccccc1F (centres undefined)
N

Tell me whether pKi is at least 8 here: CNCCC(Oc1cccc2c1OCO2)c1ccccc1F (centres undefined)
N

Tell me whether pKi is at least 8 here: Cc1cccc(C(CCN(C)C)Oc2cccc3c2OCO3)c1 (centres undefined)
N

Tell me whether pKi is at least 8 here: CN(C)CCC(Oc1cccc2c1OCO2)c1ccccc1 (centres undefined)
N

Tell me whether pKi is at least 8 here: CNCCC(Oc1cccc2c1OCO2)c1ccc(OC)c(OC)c1 (centres undefined)
N

Tell me whether pKi is at least 8 here: CN(C)CCC(Oc1cccc2c1OCO2)c1ccc(F)cc1 (centres undefined)
Y

Tell me whether pKi is at least 8 here: CN(C)CCC(Oc1cccc2c1OCO2)c1cccc(F)c1 (centres undefined)
Y

Tell me whether pKi is at least 8 here: CNCCC(Oc1cccc2c1OCO2)c1cccc(Cl)c1 (centres undefined)
Y

* * *

- assay_system: Histamine H4 receptor (Homo sapiens)
- Sequence (Q9H3N8 whole entry): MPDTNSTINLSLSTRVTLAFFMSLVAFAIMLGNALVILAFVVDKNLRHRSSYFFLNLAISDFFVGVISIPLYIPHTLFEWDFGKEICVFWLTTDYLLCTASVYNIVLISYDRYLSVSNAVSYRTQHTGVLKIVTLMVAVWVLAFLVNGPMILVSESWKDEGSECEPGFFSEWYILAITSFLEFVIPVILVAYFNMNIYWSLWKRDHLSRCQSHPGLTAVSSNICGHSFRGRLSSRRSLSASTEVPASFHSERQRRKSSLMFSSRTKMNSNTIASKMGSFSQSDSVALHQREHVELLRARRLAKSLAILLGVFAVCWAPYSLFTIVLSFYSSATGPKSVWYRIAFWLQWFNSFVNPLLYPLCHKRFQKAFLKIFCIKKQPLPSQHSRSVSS
attribute_measured: Ki

Data request, read-out Ki, for CN(C)CC[C@@H](Oc1cccc2c1OCO2)c1ccc(F)cc1.O=C(O)C(=O)O
> 1000 nM

* * *

- run_description: Half-life in CD1 mouse at 15 mg/kg, po measured upto 24 hrs by LC-MS analysis
- Assay type: ADME, organism-based
- run_conditions: in vivo
attribute_measured: half-life (h)
Return type: number; implicit unit h.

Data request, read-out half-life, for CN(C)CC[C@@H](Oc1cccc2c1OCO2)c1ccc(F)cc1.O=C(O)C(=O)O
1.8

* * *

- run_description: Acute toxicity in po dosed Sprague-Dawley rat assessed as mortality rate measured after 24 hrs
- Format: organism-based
- run_conditions: in vivo
attribute_measured: LD50 at 24 h (mg/kg)
Return type: number; implicit unit mg/kg.

# structure_notation, quantitative_result
rows = [
    ("CNCC[C@H](Oc1cccc2ccccc12)c1cccs1", 279),
]

Data request, read-out LD50 at 24 h, for CN(C)CC[C@@H](Oc1cccc2c1OCO2)c1ccc(F)cc1.O=C(O)C(=O)O
560

* * *

- assay_system: D(3) dopamine receptor (Homo sapiens)
- Sequence (P35462 whole entry): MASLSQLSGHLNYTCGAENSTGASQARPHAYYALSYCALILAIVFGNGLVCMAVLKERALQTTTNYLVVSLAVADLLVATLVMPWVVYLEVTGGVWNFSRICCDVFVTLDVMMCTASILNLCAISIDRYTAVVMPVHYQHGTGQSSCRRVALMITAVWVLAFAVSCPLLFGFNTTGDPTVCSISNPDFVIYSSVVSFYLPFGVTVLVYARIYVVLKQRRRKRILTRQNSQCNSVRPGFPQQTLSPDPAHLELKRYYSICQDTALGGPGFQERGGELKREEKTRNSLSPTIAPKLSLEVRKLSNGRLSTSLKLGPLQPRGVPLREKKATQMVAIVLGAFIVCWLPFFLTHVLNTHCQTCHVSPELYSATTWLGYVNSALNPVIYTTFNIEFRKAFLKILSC
- run_description: Binding affinity to D3 receptor (unknown origin)
pKi: −log10 of the molar value.
attribute_measured: pKi

Data request, read-out pKi, for CN(C)CC[C@@H](Oc1cccc2c1OCO2)c1ccc(F)cc1.O=C(O)C(=O)O
< 6.00

* * *

- assay_system: 5-hydroxytryptamine receptor 1A (Homo sapiens, UniProt P08908)
- Sequence (P08908 whole entry): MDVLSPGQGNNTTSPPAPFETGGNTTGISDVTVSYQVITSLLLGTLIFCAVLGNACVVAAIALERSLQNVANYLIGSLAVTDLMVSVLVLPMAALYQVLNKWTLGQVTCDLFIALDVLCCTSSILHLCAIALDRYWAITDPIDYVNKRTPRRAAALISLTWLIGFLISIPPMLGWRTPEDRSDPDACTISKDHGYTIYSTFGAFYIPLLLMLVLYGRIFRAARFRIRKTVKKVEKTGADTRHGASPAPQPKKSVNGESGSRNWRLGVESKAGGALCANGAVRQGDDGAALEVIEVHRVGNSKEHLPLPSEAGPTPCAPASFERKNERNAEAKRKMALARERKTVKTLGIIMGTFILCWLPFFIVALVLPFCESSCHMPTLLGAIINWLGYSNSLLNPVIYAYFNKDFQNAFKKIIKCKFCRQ
pKi: −log10 of the molar value.
attribute_measured: pKi

Data request, read-out pKi, for CN(C)CC[C@@H](Oc1cccc2c1OCO2)c1ccc(F)cc1.O=C(O)C(=O)O
< 6.00

* * *

- run_description: Tmax in CD1 mouse at 15 mg/kg, po measured upto 24 hrs by LC-MS analysis
- Assay type: ADME, organism-based
- run_conditions: in vivo
attribute_measured: Tmax (min)
Return type: number; implicit unit min.

Data request, read-out Tmax, for CN(C)CC[C@@H](Oc1cccc2c1OCO2)c1ccc(F)cc1.O=C(O)C(=O)O
30

* * *

- assay_system: 5-hydroxytryptamine receptor 2C (Rattus norvegicus, UniProt P08909)
- Sequence (P08909 whole entry): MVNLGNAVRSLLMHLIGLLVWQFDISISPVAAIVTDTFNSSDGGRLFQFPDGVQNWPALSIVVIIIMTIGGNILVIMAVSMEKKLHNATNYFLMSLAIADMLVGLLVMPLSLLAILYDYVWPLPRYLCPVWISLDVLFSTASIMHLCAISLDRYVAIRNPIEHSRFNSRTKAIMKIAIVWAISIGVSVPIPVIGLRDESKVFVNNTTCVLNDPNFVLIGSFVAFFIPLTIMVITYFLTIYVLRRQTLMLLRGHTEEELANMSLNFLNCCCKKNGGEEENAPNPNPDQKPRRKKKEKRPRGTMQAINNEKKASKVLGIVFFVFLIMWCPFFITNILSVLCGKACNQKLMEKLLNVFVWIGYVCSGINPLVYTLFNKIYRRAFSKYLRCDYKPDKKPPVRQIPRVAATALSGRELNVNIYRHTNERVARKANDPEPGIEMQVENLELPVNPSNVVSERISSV
- run_description: Displacement of [3H]-mesulergine from 5-HT2C in rat cerebral cortex incubated for 15 mins by liquid scintillation counting method
- Format: tissue-based
attribute_measured: pKi
FYI, pKi means -log10 of a concentration in mol per litre.

# molecule, quantitative_result
data = [
    ("CNCC[C@H](Oc1cccc2ccccc12)c1cccs1 [DULOXETINE]", 5.61),
]

Data request, read-out pKi, for CN(C)CC[C@@H](Oc1cccc2c1OCO2)c1ccc(F)cc1.O=C(O)C(=O)O
7.80

Data request, read-out pKi, for CN(C)CCC(Oc1cccc2c1OCO2)c1ccc(F)cc1 (stereo not given)
7.53

Data request, read-out pKi, for CNCCC(Oc1cccc2c1OCO2)c1ccccc1 (stereo not given)
6.87

Data request, read-out pKi, for CN(C)CCC(Oc1cccc2c1OCO2)c1cccc(F)c1 (stereo not given)
7.20

* * *

- assay_system: Glutamate [NMDA] receptor
- run_description: Binding affinity to NMDA receptor (unknown origin)
attribute_measured: Ki

Data request, read-out Ki, for CN(C)CC[C@@H](Oc1cccc2c1OCO2)c1ccc(F)cc1.O=C(O)C(=O)O
> 1 µM

* * *

# key: entry, value: IC50
- assay_system: 5-hydroxytryptamine receptor 2C (Homo sapiens, UniProt P28335)
- Sequence (P28335 whole entry): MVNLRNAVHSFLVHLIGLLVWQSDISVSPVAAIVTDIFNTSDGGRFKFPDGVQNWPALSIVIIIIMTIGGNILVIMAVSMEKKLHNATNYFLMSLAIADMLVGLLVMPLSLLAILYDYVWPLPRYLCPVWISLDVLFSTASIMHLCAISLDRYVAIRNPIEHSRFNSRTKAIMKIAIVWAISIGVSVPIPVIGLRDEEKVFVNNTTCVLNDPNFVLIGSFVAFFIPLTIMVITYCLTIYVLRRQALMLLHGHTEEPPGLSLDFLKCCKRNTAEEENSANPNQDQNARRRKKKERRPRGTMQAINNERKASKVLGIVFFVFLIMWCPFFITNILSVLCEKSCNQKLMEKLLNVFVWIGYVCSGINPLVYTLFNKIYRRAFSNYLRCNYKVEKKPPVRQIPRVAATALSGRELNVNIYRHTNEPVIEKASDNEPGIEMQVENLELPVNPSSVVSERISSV
- run_description: Antagonist activity at 5-HT2C in HEK293 cells incubated for 60 mins by FLIPR assay
Return type: number; implicit unit µM.

# structure_notation, assay_system, uom, IC50
rows = [
    ("Cc1cc2c(cc1Cl)N(C(=O)Nc1ccc(Oc3cccnc3C)nc1)CC2", "5-hydroxytryptamine receptor 2C (Homo sapiens, UniProt P28335)", "µM", 0.0197),
]

Shift focus to the following entry.
Give IC50 (5-hydroxytryptamine receptor 2C (Homo sapiens, UniProt P28335)) of the following compound: CN(C)CC[C@@H](Oc1cccc2c1OCO2)c1ccc(F)cc1.O=C(O)C(=O)O
0.0875

* * *

- assay_system: Sodium-dependent dopamine transporter (Homo sapiens)
- Sequence (Q01959 whole entry): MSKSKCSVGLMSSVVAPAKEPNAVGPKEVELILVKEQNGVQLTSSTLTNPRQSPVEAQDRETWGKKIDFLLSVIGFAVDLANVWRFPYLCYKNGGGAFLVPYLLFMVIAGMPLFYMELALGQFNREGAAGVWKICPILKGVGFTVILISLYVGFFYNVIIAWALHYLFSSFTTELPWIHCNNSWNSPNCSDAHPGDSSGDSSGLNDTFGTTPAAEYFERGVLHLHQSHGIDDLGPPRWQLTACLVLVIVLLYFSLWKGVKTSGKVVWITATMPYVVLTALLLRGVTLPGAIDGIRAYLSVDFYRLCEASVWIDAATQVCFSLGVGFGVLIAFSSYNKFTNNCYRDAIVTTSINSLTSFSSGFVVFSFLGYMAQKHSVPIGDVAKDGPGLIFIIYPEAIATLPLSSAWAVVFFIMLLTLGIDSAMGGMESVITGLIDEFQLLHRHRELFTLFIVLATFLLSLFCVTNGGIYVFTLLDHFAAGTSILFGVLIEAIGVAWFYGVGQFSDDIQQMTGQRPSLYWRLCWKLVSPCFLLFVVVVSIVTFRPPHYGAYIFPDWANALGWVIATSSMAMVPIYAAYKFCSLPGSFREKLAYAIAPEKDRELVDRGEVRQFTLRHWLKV
attribute_measured: Ki

Data request, read-out Ki, for CN(C)CC[C@@H](Oc1cccc2c1OCO2)c1ccc(F)cc1.O=C(O)C(=O)O
> 1000 nM

* * *

What follows is a record of pKi for UniProtKB P31652.
FYI, pKi means -log10 of a concentration in mol per litre.

# compound, quantitative_result
data = [
    ("CN(C)CCC(Oc1cccc2c1OCO2)c1ccc(C(F)(F)F)cc1 (stereo not drawn)", 6.74),
    ("CNCCC(Oc1cccc2c1OCO2)c1cccc(Cl)c1 (stereo not drawn)", 6.95),
    ("CNCCC(Oc1cccc2c1OCO2)c1ccc2c(c1)OCO2 (stereo not drawn)", 7.48),
    ("CNCCC(Oc1cccc2c1OCO2)c1ccccc1C (stereo not drawn)", 7.39),
    ("CNCCC(Oc1cccc2c1OCO2)c1ccccc1F (stereo not drawn)", 7.07),
]

Data request, read-out pKi, for CNCCC(Oc1cccc2c1OCO2)c1ccc(F)c(F)c1 (stereo not drawn)
7.02

Data request, read-out pKi, for CN(C)CCC(Oc1cccc2c1OCO2)c1ccc(F)cc1 (stereo not drawn)
8.38

Data request, read-out pKi, for CNCCC(Oc1cccc2c1OCO2)c1ccc(OC)cc1 (stereo not drawn)
6.96
